So I've got a bunch of binders here, and I need their % Inhibition Skp2 @ 10 µM values.
Biological target: Skp2 (UniProt Q13309 1-424, limits assumed)
Sequence (Q13309 whole entry): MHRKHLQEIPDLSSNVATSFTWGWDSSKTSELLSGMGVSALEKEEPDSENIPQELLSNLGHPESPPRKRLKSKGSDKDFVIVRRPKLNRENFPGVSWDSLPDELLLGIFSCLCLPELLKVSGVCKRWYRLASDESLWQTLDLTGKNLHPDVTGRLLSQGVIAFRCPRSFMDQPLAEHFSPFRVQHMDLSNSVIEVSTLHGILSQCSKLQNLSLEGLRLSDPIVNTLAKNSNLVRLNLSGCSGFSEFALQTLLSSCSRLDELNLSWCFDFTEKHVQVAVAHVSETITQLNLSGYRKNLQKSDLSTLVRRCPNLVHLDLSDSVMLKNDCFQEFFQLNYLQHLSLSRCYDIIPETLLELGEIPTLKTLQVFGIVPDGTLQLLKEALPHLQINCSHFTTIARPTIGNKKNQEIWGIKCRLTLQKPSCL
Assay: cell-based or functional assay
Starred links: 1 amine or outer side, 2 acyl side, 3 side chain; linkers in the order of their positions; H or OH if unused. Non-standard residues stand in square brackets, D forms with d. No end group written: not given here. *: point of attachment. Tyr(Me) = O-methyl-L-tyrosine, COc1ccc(C[C@H](N[*:1])C(=O)[*:2])cc1; Phe(4-NO2) = N[C@@H](Cc1ccc([N+](=O)[O-])cc1)C(=O)O; Benzenesulfonyl(4-OMe) = COc1ccc(S(=O)(=O)*)cc1; Phe(3-F) = N[C@@H](Cc1cccc(F)c1)C(=O)O; Phe(4-F) = N[C@@H](Cc1ccc(F)cc1)C(=O)O; 1Nal = N[C@@H](Cc1cccc2ccccc12)C(=O)O; Phe(2-F) = N[C@@H](Cc1ccccc1F)C(=O)O; pS = N[C@@H](COP(=O)(O)O)C(=O)O; Suc = O=C(CCC(=O)[*:2])[*:1]; Tos = Cc1ccc(S(=O)(=O)*)cc1; Bz = O=C(c1ccccc1)*; Moc = COC(=O)*
Value and unit, in that order.

See these solved cases before continuing.
{"columns": ["Binder", "Result"],
 "data": [
  ["Suc-EG[Phe(3-F)][Phe(4-NO2)]E-NH2 (SMILES NC(=O)[C@H](CCC(=O)O)NC(=O)[C@H](Cc1ccc([N+](=O)[O-])cc1)NC(=O)[C@H](Cc1cccc(F)c1)NC(=O)CNC(=O)[C@H](CCC(=O)O)NC(=O)CCC(=O)O) [Suc-EGF(3F)F(4NO2)E-NH2]", "0%"],
  ["Bz-[dD]EG[Phe(3-F)]WE-NH2 (also called UBP018) [Bz-dEGF(3F)WE-NH2]", "0%"],
  ["Suc-EG[Phe(3-F)][1Nal]E-NH2 [Suc-EGF(3F)1NalE-NH2]", "0%"],
  ["Suc-EGY[1Nal]E-NH2 [Suc-EGY1NalE-NH2]", "0%"],
  ["D[pS]GIFE-NH2 (N-terminus assumed; SMILES CC[C@H](C)[C@H](NC(=O)CNC(=O)[C@H](COP(=O)(O)O)NC(=O)[C@@H](N)CC(=O)O)C(=O)N[C@@H](Cc1ccccc1)C(=O)N[C@@H](CCC(=O)O)C(N)=O) [DpSGIFE-NH2]", "8%"]
]}

Hey, quick one: what's % Inhibition Skp2 @ 10 µM for each of these?
1. {Benzenesulfonyl(4-OMe)}-DEG[Phe(3-F)]WE-NH2 (SMILES COc1ccc(S(=O)(=O)N[C@@H](CC(=O)O)C(=O)N[C@@H](CCC(=O)O)C(=O)NCC(=O)N[C@@H](Cc2cccc(F)c2)C(=O)N[C@@H](Cc2c[nH]c3ccccc23)C(=O)N[C@@H](CCC(=O)O)C(N)=O)cc1, also called UBP026) [4-(MeO)-PhSO2-DEGF(3F)WE-NH2]
2. Suc-EGFFE-NH2 (SMILES NC(=O)[C@H](CCC(=O)O)NC(=O)[C@H](Cc1ccccc1)NC(=O)[C@H](Cc1ccccc1)NC(=O)CNC(=O)[C@H](CCC(=O)O)NC(=O)CCC(=O)O, also called UBP002) [Suc-EGFFE-NH2]
3. Moc-[dD]EG[Phe(3-F)]WE-NH2 (SMILES COC(=O)N[C@H](CC(=O)O)C(=O)N[C@@H](CCC(=O)O)C(=O)NCC(=O)N[C@@H](Cc1cccc(F)c1)C(=O)N[C@@H](Cc1c[nH]c2ccccc12)C(=O)N[C@@H](CCC(=O)O)C(N)=O, also called UBP020) [MeO(CO)-dEGF(3F)WE-NH2]
4. Tos-[dD]DG[Phe(3-F)]WD-NH2 (SMILES Cc1ccc(S(=O)(=O)N[C@H](CC(=O)O)C(=O)N[C@@H](CC(=O)O)C(=O)NCC(=O)N[C@@H](Cc2cccc(F)c2)C(=O)N[C@@H](Cc2c[nH]c3ccccc23)C(=O)N[C@@H](CC(=O)O)C(N)=O)cc1, also called UBP028) [Ts-dDGF(3F)WD-NH2]
5. Tos-[dD]EG[Phe(3-F)]WD-NH2 (SMILES Cc1ccc(S(=O)(=O)N[C@H](CC(=O)O)C(=O)N[C@@H](CCC(=O)O)C(=O)NCC(=O)N[C@@H](Cc2cccc(F)c2)C(=O)N[C@@H](Cc2c[nH]c3ccccc23)C(=O)N[C@@H](CC(=O)O)C(N)=O)cc1, also called UBP027) [Ts-dEGF(3F)WD-NH2]
6. Tos-[dD]DG[Phe(3-F)]WE-NH2 (SMILES Cc1ccc(S(=O)(=O)N[C@H](CC(=O)O)C(=O)N[C@@H](CC(=O)O)C(=O)NCC(=O)N[C@@H](Cc2cccc(F)c2)C(=O)N[C@@H](Cc2c[nH]c3ccccc23)C(=O)N[C@@H](CCC(=O)O)C(N)=O)cc1, also called UBP025) [Ts-dDGF(3F)WE-NH2]
7. QGXXE (N-terminal Suc (succinyl) cap; position 3 F(3F); position 4 F(4NO2); C-terminal amide) [Suc-QGF(3F)F(4NO2)E-NH2]
8. Suc-EG[Phe(2-F)][Tyr(Me)]E-NH2 (SMILES COc1ccc(C[C@H](NC(=O)[C@H](Cc2ccccc2F)NC(=O)CNC(=O)[C@H](CCC(=O)O)NC(=O)CCC(=O)O)C(=O)N[C@@H](CCC(=O)O)C(N)=O)cc1) [Suc-EGF(2F)Y(Me)E-NH2]

### Response
["15%", "14%", "0%", "0%", "4%", "0%", "0%", "0%"]

Hey, quick one: what's % Inhibition Skp2 @ 10 µM for each of these?
1. Suc-EG[Phe(4-F)][Phe(4-NO2)]E-NH2 (SMILES NC(=O)[C@H](CCC(=O)O)NC(=O)[C@H](Cc1ccc([N+](=O)[O-])cc1)NC(=O)[C@H](Cc1ccc(F)cc1)NC(=O)CNC(=O)[C@H](CCC(=O)O)NC(=O)CCC(=O)O) [Suc-EGF(4F)F(4NO2)E-NH2]
2. {Benzenesulfonyl(4-OMe)}-[dD]EG[Phe(3-F)]WE-NH2 (SMILES COc1ccc(S(=O)(=O)N[C@H](CC(=O)O)C(=O)N[C@@H](CCC(=O)O)C(=O)NCC(=O)N[C@@H](Cc2cccc(F)c2)C(=O)N[C@@H](Cc2c[nH]c3ccccc23)C(=O)N[C@@H](CCC(=O)O)C(N)=O)cc1, also called UBP022) [4-(MeO)-PhSO2-dEGF(3F)WE-NH2]

### Response
["0%", "7%"]
